system.tested: full-length SARM1 (FL-SARM1) (Homo sapiens, UniProt Q6SZW1)
Sequence (Q6SZW1 28-724): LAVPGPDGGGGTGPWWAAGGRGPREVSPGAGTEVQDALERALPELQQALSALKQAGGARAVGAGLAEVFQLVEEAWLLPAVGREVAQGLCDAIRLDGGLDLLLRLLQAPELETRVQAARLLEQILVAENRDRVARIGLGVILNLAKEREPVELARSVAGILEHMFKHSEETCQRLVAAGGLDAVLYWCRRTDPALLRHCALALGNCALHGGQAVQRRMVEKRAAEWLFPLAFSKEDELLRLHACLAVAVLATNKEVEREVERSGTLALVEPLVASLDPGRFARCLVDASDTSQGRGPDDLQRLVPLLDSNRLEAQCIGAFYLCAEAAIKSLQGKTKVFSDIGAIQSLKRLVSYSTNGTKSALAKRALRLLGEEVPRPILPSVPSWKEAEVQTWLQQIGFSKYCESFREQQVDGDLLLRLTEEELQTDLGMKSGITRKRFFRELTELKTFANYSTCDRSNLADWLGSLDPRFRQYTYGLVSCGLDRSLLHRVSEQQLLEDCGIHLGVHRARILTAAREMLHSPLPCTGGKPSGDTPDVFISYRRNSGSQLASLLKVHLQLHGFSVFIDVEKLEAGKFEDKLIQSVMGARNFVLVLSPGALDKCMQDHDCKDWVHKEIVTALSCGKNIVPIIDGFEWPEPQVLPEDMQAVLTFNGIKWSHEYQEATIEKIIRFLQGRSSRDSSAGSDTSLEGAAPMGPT
assay.notes: FL-SARM1 cellular lysate assay (NAD/NADH-Glo detection of remaining NAD+, NMN-activated)
condition.description: Activity (μM) (IC50), 11 point curve
measured.metric: log10 IC50 (log10 of the value in µM)
On a log10 scale: recorded IC50, unit µM.

// worked examples, log10 IC50 included
Cc1ccc(NC(=O)C(C)C(F)(F)F)cc1-c1ncccn1 (racemic) [Example 169] = 1.32
Cc1ccc(NC(=O)N2C3CCCC2CC3)cc1-c1ccc(F)cn1 [Example 14] = -1.00

Below are some compounds; for each one, tell me its log10 IC50.
1. COC(=O)[C@@H]1CC[C@@H]2C[C@H]1N2C(=O)Nc1ccc(C)c(-c2ccccn2)c1 (racemic) [Example 70]
2. Cc1ccc(NC(=O)N2C3C[C@@H]2CC[C@H]3C)cc1-c1ccccn1 (single isomer, unassigned) [Example 49]

output:
1. 0.28
2. -0.70

Below are some compounds; for each one, tell me its log10 IC50.
1. Cc1cc(F)c(NC(=O)N2CC3CC2c2ccccc23)cc1-c1cccnn1 (single isomer, unassigned) [Example 202]
2. COCC12CC(C)CC(C1)N2C(=O)Nc1cc(-c2ncccn2)c(C)cc1F (single isomer, unassigned) [Example 199]
3. Cc1ccc(NC(=O)C2CCC2(F)F)cc1-c1ccccn1 (racemic) [Example 111]

output:
1. 0.83
2. 0.63
3. 0.45
